target entity: EGFR-L858R/T790M (Homo sapiens (Human), UniProt P00533, L858R/T790M)
Sequence (P00533 25-1210 T790M/L858R): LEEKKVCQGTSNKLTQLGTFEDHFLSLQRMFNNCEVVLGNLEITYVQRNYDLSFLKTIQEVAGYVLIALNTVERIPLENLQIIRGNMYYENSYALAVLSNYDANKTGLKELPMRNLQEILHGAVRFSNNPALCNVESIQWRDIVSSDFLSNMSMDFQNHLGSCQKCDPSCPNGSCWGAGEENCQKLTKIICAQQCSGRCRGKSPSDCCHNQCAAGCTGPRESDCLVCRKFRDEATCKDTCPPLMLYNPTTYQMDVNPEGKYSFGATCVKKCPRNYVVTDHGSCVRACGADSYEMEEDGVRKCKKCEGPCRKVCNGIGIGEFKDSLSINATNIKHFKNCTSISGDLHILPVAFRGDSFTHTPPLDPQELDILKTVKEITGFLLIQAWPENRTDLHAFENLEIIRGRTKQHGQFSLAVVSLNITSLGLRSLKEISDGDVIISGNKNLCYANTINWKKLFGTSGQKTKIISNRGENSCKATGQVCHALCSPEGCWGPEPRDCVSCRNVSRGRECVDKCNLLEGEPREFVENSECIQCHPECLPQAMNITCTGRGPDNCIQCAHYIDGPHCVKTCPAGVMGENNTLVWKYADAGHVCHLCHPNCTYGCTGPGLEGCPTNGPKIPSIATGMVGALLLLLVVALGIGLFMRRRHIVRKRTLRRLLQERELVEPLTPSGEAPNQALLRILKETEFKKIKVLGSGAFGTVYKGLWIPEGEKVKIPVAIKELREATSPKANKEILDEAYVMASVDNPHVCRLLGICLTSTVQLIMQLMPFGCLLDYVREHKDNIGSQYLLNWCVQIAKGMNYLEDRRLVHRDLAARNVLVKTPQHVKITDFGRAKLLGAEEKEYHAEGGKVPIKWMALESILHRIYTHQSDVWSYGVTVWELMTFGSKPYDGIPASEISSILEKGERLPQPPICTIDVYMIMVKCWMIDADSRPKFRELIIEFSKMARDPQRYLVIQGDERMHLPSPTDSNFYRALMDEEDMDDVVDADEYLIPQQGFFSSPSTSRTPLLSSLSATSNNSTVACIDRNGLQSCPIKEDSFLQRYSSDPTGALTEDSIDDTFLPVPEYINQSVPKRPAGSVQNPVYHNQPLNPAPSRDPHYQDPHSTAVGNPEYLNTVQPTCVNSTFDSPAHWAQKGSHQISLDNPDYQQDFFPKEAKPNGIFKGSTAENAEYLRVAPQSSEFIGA
assay text: In vitro EGFR kinase activity assay (Z'-Lyte);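 note: Cell-free kinase reaction with peptide substrate and ATP, 1.5 h at room temperature, development cleaving unphosphorylated peptide, 10-point dilution 0.051–1000 nM, phosphopeptide as 100% phosphorylation control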
Assay type: biochemical
run parameters: read-out: Inhibitory activity on EGFR kinase (IC50, nM) T790M/L858R
Here, each record is paired with measured IC50 data.

Check out these entries, answers already filled in.
chem_smiles=CCC(=O)Nc1cccc(-n2c(=O)cnc3cnc(Nc4ccc(OC)cc4)nc32)c1 endpoint_value="> 10000 nM"
chem_smiles=COc1ccc(-n2c(=O)cnc3cnc(Nc4cccc(N)c4)nc32)cc1 endpoint_value="3530 nM"
chem_smiles=CCC(=O)Nc1ccc(-n2c(=O)cnc3cnc(Nc4ccc(OC)cc4)nc32)cc1 endpoint_value="> 10000 nM"
chem_smiles=C=CC(=O)Nc1cccc(-n2c(=O)cnc3cnc(Nc4ccc(N5CCN(C)CC5)cc4OC)nc32)c1 endpoint_value="1.17 nM"
chem_smiles=C=CC(=O)Nc1ccc(-n2c(=O)c(C)nc3cnc(Nc4ccc(OC)cc4)nc32)cc1 endpoint_value="> 10000 nM"

Requested read-out: IC50. Entry: "C=CC(=O)Nc1cccc(-n2c(=O)cnc3cnc(Nc4ccc(C(N)=O)cc4)nc32)c1"
4.39 nM

Looking for the measured IC50 of "C=CC(=O)Nc1ccc(-n2c(=O)cnc3cnc(Nc4ccc(N5CCOCC5)cc4)nc32)cc1" , can you help?
3300 nM

Given the entry "C=CC(=O)Oc1ccc(-n2c(=O)cnc3cnc(Nc4ccc(OC)cc4)nc32)cc1" , report its measured IC50.
70.3 nM

Values were extracted from patent US9670213B2.
